Where these numbers come from: patent US20250388688A1

Readings of ELISA (OD 450) at 33.3 nM for the listed binders
biological target: soluble TSHR protein (ELISA coat) (human, UniProt P16473 22-260, limits assumed); assay: ELISA, plate coated with soluble TSHR, antibody at 33.3 nM, anti-human IgG Fc-HRP;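 further: binding of antibody variants to plate-bound soluble TSHR (coated at 2 µg/ml), with bound human IgG detected by HRP conjugate and colour developed using TMB substrate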
// note: answer is a bare numeric in OD 450

binder | u | ELISA (OD 450) at 33.3 nM
TSHB-10 (antibody, V domains shown) VH: EVQLVQSGAEVKKPGESLKISCKASGYSLTDNWIGWVRQKPGKGLEWMGIIYPGDSDTRYSPSFKGQVTISADKSISTAYLQWSSLKASDTAIYYCVGLDWNYNPLRYWGQGTLVTVSS VL: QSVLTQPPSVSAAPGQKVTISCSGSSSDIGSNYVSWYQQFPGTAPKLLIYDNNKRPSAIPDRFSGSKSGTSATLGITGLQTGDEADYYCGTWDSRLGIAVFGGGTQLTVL | OD 450 | 0.44
TSHB-25 (antibody, V domains shown) VH: EVQLVQSGAEVKKPGASVKVSCKASGYSLTDNWIGWVRQAPGQGLEWMGIIYPGDSDTRYAQKFQGRVTMTADKSTSTVYMELSSLRSEDTAVYYCVGLDWNYNPLRYWGQGTLVTVSS VL: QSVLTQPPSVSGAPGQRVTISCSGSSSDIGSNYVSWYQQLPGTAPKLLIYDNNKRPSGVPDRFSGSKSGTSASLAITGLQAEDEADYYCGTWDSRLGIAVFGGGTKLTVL | OD 450 | 0.38

Moving on to another binder below.
Write down ELISA (OD 450) at 33.3 nM measured for item TSHB-7 (antibody, V domains shown) VH: EVQLVQSGAEVKKPGESLKISCKASGYSLKDNWIGWVRQKPGKGLEWMGIIYPGDSDTRYSPSFQGQVTISADKSISTAYLQWSSLKASDTAIYYCVGLDWNYNPLRYWGQGTLVTVSS VL: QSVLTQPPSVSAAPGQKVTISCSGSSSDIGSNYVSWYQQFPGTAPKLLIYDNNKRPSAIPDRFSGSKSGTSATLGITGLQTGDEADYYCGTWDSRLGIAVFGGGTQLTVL
0.443
